tgt: T1, biotinylated native human ApoC3 (human, UniProt P02656 21-99, biotinylated (site not stated))
T1 construct: also called biotinylated human ApoC3
test: SPR, IgG1 over biotinylated ApoC3 on SA chip, pH 5.5
endpoint: koff (s⁻¹)
The answer is to be given in s⁻¹; state only the numeric part.

Prompt line: Quick check: koff of 5E5VH12_VLWT human IgG1 (antibody, V domains shown) VH: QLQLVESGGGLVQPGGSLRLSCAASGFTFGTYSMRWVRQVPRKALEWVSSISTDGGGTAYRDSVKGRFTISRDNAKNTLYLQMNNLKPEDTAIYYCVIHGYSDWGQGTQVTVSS VL: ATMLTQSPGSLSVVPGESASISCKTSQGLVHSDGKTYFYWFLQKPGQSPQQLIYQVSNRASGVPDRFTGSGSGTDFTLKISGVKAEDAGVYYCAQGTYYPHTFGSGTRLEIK ?
Response line: 0.000143
